assayed system: CaRvs167-3
assay text: SPOT peptide array binding signal intensity (averaged, normalized) (arbitrary units (background-subtracted, floor 0; scale differs between SH3 domains)); higher = stronger binding of the SH3 domain to the peptide
Decision: SPOT peptide array binding signal intensity >= 4 yields Fulfilled, all other cases yield Not fulfilled.

Example cases with answers are listed next.
            binder  assigned_class
0  RNNRPVPPPPPMRTT   Not fulfilled
1  MFLISPPASPPPEFD   Not fulfilled

Lookup: Please tell me: is the binder `STPQTMRQAPKRPDA` at or over 4 in terms of SPOT peptide array binding signal intensity?
Found: Not fulfilled

Lookup: hey, is SPOT peptide array binding signal intensity for this one >= 4? `AGKRRLPLVRFKASD`
Found: Fulfilled
